# Tested on: MT4
# TEST METHOD NOTES: Cytotoxicity against human MT4 cells after 2 days
# Assay type: cell-based
# RUN PARAMETERS: mt4, 48 h
ASSAY METRIC: CC50 (µM)
Just the number please, in µM, no unit attached.

C=C(C)[C@@H]1CC[C@]2(C(=O)N3CCN(CCCC(=O)O)CC3)CC[C@]3(C)[C@H](CC[C@@H]4[C@@]5(C)CC[C@H](OC(=O)CC(C)(C)C(=O)O)C(C)(C)[C@@H]5CC[C@]43C)[C@@H]12 :: 13
C=C(C)[C@@H]1CC[C@]2(C(=O)N3CCC(CCCC(=O)NCCN4CCOCC4)CC3)CC[C@]3(C)[C@H](CC[C@@H]4[C@@]5(C)CC[C@H](OC(=O)CC(C)(C)C(=O)O)C(C)(C)[C@@H]5CC[C@]43C)[C@@H]12 :: 10

Next up:
Q) Report CC50 for C=C(C)[C@@H]1CC[C@]2(C(=O)OCCC)CC[C@]3(C)[C@H](CC[C@@H]4[C@@]5(C)CC[C@H](OC(=O)CC(C)(C)C(=O)O)C(C)(C)[C@@H]5CC[C@]43C)[C@@H]12 please.
A) 10.4
